- measurement target: Neurogenic locus notch homolog protein 2 (Homo sapiens)
- assay text: Notch2 binders on small-molecule microarrays, primary screen, biochemical, small-molecule microarray, 635 nm fluorescence, stem cell growth factors (AID 1073)
- condition parameters: Notch2 binding, higher = more signal
Cut-off 0.8 on composite z-score, inclusive. At or above means satisfied; below means not satisfied.

Problem: Quick check, composite z-score >= 0.8? `CCN1C(=O)[C@H]2[C@@H]3C(=CC[C@H]2C1=O)C(=O)[C@H]1O[C@H]1[C@H]3O`
Solution: not satisfied

Problem: Another: COC(=O)[C@H](C)NC(=O)CCC1CC(OC(=O)NCCc2ccc(F)cc2)CC2(CCCC(COC(=O)NCCc3ccccc3OC)O2)O1 (some centres not stated)
Solution: satisfied

Problem: Okay, and `CO[C@@H]1COC(=O)[C@H](CCSC)NC(=O)CC=C[C@@H](C)COC(=O)[C@@H]2CCCN2C(=O)CC=C[C@H]1C` ?
Solution: satisfied

Problem: Another: `CCN1C(=O)[C@H]2[C@H]3[C@H](O)[C@H](O)CC(=NO[C@@H]4O[C@H](COC(C)=O)[C@@H](OC(C)=O)[C@H](OC(C)=O)[C@H]4OC(C)=O)[C@@H]3CC[C@H]2C1=O`
Solution: satisfied

Problem: Also check `CCOC(=O)CCN1C(=O)[C@H]2[C@H]3[C@H](O)[C@H](O)CC(=NO[C@@H]4O[C@H](CO)[C@@H](O)[C@H](O)[C@H]4O)[C@H]3CC[C@H]2C1=O`
Solution: not satisfied

Problem: Try `CCOC(=O)NN=C1C[C@@H](O)[C@@H](O)[C@@H]2[C@@H]3C(=O)N(C[C@@H]4CCCO4)C(=O)[C@@H]3CC[C@H]12` next.
Solution: not satisfied

Problem: Next: `C#CCCCON=C1C[C@@H](O)[C@@H](O)[C@@H]2[C@@H]3C(=O)N(C4CCCCC4)C(=O)[C@@H]3CC[C@@H]12`
Solution: not satisfied

Problem: What about `CC(=O)OC[C@H]1O[C@H](C#CCC2CCCCC2)C=C[C@@H]1OC(C)=O` ?
Solution: not satisfied

Problem: Note, next up: `CC(C)CON=C1C[C@@H](O)[C@@H](O)[C@@H]2[C@@H]3C(=O)N(C(C)(C)C)C(=O)[C@@H]3CC[C@@H]12`
Solution: not satisfied

Problem: Now consider CCOC(=O)[C@H](CC(C)C)NC(=O)CCC1CC(OC(=O)NCc2ccc3c(c2)OCO3)CC2(CCCC(COC(=O)NCCc3ccccc3OC)O2)O1 (some centres not stated) .
Solution: satisfied

Problem: Moving on to `CC(C)CON=C1C[C@@H](O)[C@@H](O)[C@@H]2[C@@H]3C(=O)N([C@@H](C)c4ccccc4)C(=O)[C@@H]3CC[C@@H]12`
Solution: not satisfied

Problem: `COC(=O)CC=C[C@@H](C)[C@@H](C=NOC[C@@H](O)[C@H]1O[C@@H]2OC(C)(C)O[C@@H]2[C@H]1O)OC` ?
Solution: not satisfied

----------
- assay text: small-molecule binders of probe aInhba, primary screen, biochemical, small-molecule microarray, 635/667 nm fluorescence (AID 1148);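 note: score merges 667nm spot fluorescence with signal-to-noise for antibody binding to printed compounds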
- condition parameters: higher = more signal
Exercise: for every item that follows, state its recorded composite z-score.
API note: the answer field is a bare number with no unit suffix.

Problem: Request the reported composite z-score associated with `CCO[C@H](c1cc(OC)cc([N+](=O)[O-])c1OC)[C@H](C)[C@@H](OC)[C@H](C)C=CCC(=O)OC`
Solution: -0.183

Problem: And `O=C1C=C[C@@H](O)[C@@H]2[C@@H]3C(=O)N(Cc4ccccc4)C(=O)[C@@H]3CC[C@@H]12` ?
Solution: -0.128

Problem: Another compound to check: CCOC(=O)[C@H](Cc1ccccc1)NC(=O)CCC1CC(OC(=O)NCCc2ccc(F)cc2)CC2(CCCC(COC(=O)NCc3cccc(C(F)(F)F)c3)O2)O1 (some centres undefined)
Solution: -0.101

Problem: Next entry: `COc1ccc(O[C@H]2C=C[C@@H](c3ccccc3)O[C@@H]2CON=C2c3cc(OC)ccc3O[C@H](c3cccc(OC)c3)[C@H]2O)cc1`
Solution: -0.224

Problem: Here is the next compound: `COC(=O)[C@H](C)NC(=O)CC=C[C@@H](C)[C@@H]1C=C[C@H](O)[C@@H](CO)O1`
Solution: -0.0918

Problem: // query: `O=C(NN=C1C[C@@H](O)[C@@H](O)[C@@H]2[C@@H]3C(=O)N(c4ccc(F)cc4F)C(=O)[C@@H]3CC[C@H]12)OCc1ccccc1`
Solution: -0.101

Problem: Another compound to check: `O=C1[C@H]2CCn3c(=O)n(-c4ccccc4)c(=O)n3[C@H]2[C@H](O)[C@@H]2O[C@H]12`
Solution: -0.272

Problem: Ok, now CCOC(=O)[C@H](Cc1ccccc1)NC(=O)CCC1CC(OC(=O)NCc2cccc3ccccc23)CC2(CCCC(COC(=O)NCc3ccc4c(c3)OCO4)O2)O1 (some centres undefined)
Solution: -0.0762

Problem: Now try `COc1ccc(COC(=O)NN=C2C[C@@H](O)[C@@H](O)[C@@H]3[C@@H]4C(=O)N(C[C@@H]5CCCO5)C(=O)[C@@H]4CC[C@H]23)cc1` .
Solution: 0.0275

Problem: Moving on to `CC(CCN1CCc2nc(-c3ccccc3)c(-c3ccccc3)cc2C1)=NO[C@@H](C)c1cc(-c2c(C)cc(C)cc2C)no1`
Solution: -0.159

Problem: `COc1ccc(OC[C@H]2CN3[C@@H](CC[C@@H](C)[C@@H]3c3ccc(Br)cc3)C(=O)O2)cc1` , same question.
Solution: -0.2

Problem: Moving on to the next compound: `COC(=O)[C@@H]1CC[C@H](C)[C@@H](c2ccc(C)cc2)N1C(=O)c1ccc(C=NO[C@@H](C)c2cc(-c3c(C)cc(C)cc3C)no2)cc1`
Solution: -0.0986

Problem: Next: `CC(C)=CCCC(C)=CCON=C1[C@H]2CCn3c(=O)n(-c4ccccc4)c(=O)n3[C@H]2[C@H](O)[C@@H]2O[C@H]12`
Solution: 0.0319

Problem: How about this compound: CCN(CC)CC(O)CN1CCCCc2nc(C)c(C)cc21 (centres undefined)
Solution: -0.183

Problem: Param item: `CCOC(=O)CCN1C(=O)[C@H]2[C@H]3[C@H](O)[C@H](O)CC(=O)[C@@H]3CC[C@H]2C1=O`
Solution: -0.179

Problem: Note, next up: `CCN1C(=O)[C@H]2[C@H]3[C@H](O)[C@H](O)CC(=NOCC=C(C)CCC=C(C)C)[C@@H]3CC[C@H]2C1=O`
Solution: -0.204

Problem: Then what about the compound `CCCNC(=O)OC[C@H]1O[C@H](CCON=C2c3cc(OC)ccc3O[C@H](c3cccc(OC)c3)[C@H]2O)C=C[C@@H]1Oc1ccc(OC)cc1` ?
Solution: -0.0011

Problem: Same read-out for `CC(C)=NOC[C@@H](O)[C@H]1O[C@@H]2OC(C)(C)O[C@@H]2[C@H]1O` ?
Solution: 0.333

Problem: Cool, now `COC(=O)[C@@H]1CC[C@H](C)[C@@H](c2ccc(Br)cc2)N1C[C@@H](O)CN=[N+]=[N-]`
Solution: -0.224

----------
Please provide measured composite z-score for the entries that follow.
- System: Fibrinogen (Alexa647-labelled)
- assay text: fibrinogen binders on compound microarrays, profiling panel, artefact control for SMM control-protein annotation, biochemical, small-molecule microarray, 635/667 nm fluorescence (AID 1131);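 note: z-score merges 667 nm fluorescence with per-spot signal-to-noise over triplicate slides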
- condition parameters: fibrinogen-A647 binding fluorescence, higher = more signal
// no unit string in output, number only

Problem: Lab note: need composite z-score with Fibrinogen (Alexa647-labelled) for entry O=C1CCCC=C1C(O)C1CCCCC1 (centres undefined) , please look it up.
Solution: -0.206

Problem: Try this compound next: CCN1C(=O)[C@H]2[C@H]3[C@H](O)[C@H](O)CC(=NOC(C)CN4CCCc5nc(C)c(C)cc54)[C@@H]3CC[C@H]2C1=O (some centres undefined)
Solution: 0.116

Problem: Record: `CON=C(C)CCN1CCCc2nc(C)c(C)cc21`
Solution: 0.613

Problem: Please answer likewise for `CC(C)CON=C1C[C@@H](O)[C@@H](O)[C@@H]2[C@@H]3C(=O)N(C(C)(C)C)C(=O)[C@@H]3CC[C@@H]12`
Solution: -0.766

Problem: Would you mind doing `C=CC[C@@H]1C=C[C@H](Oc2ccc(C)cc2)[C@@H](COC(=O)NCc2cccc3ccccc23)O1` as well?
Solution: 0.216

Problem: Try COC(=O)[C@H](C)NC(=O)CCC1CC(OC(=O)NCc2cccc3ccccc23)CC2(CCCC(COC(=O)NCCc3ccccc3OC)O2)O1 (some centres undefined) next.
Solution: 0.661

Problem: And then `O=C1[C@H]2CCn3c(=O)n(Cc4cc5c(cc4Cl)OCO5)c(=O)n3[C@H]2[C@H](O)[C@@H]2O[C@H]12` , what is it?
Solution: 0.855

Problem: Next: `CC(=O)OC[C@H]1O[C@H](CC=NOCC[C@@H]2C=C[C@H](OC(C)=O)[C@@H](COC(C)=O)O2)C=C[C@@H]1OC(C)=O`
Solution: -0.305

Problem: # repeat for `CC(=O)OC[C@H]1O[C@H](CC=NO[C@@H](C)c2cc(-c3c(C)cc(C)cc3C)no2)C=C[C@@H]1OC(C)=O`
Solution: 0.318

Problem: How about this compound: `CC(CCN1CCCc2nc(C)c(C)cc21)=NO[C@@H](C)c1cn([C@H](CO)Cc2ccccc2)nn1`
Solution: 0.279

Problem: Repeat for the following compound: `C#CCCCON=C1[C@H]2CCn3c(=O)n([C@@H](CC)c4ccccc4)c(=O)n3[C@H]2[C@H](O)[C@@H]2O[C@H]12`
Solution: -0.509

Problem: Next: `C#CCCCON=C1C[C@@H](O)[C@@H](O)[C@@H]2[C@@H]3C(=O)N(C4CCCCC4)C(=O)[C@@H]3CC[C@@H]12`
Solution: 0.486

Problem: Cool, now `CCOC(=O)CCN1C(=O)[C@H]2[C@H]3[C@H](O)[C@H](O)CC(=NO[C@@H]4O[C@H](CO)[C@@H](O)[C@H](O)[C@H]4O)[C@@H]3CC[C@H]2C1=O`
Solution: 0.854

Problem: Same question for `C[C@@H](c1ccccc1)N1C(=O)[C@H]2[C@H]3[C@H](O)[C@H](O)CC(=NOC[C@@H](O)COCc4ccco4)[C@H]3CC[C@H]2C1=O` please.
Solution: 0.658

Problem: Request: `C=CC[C@@H]1C=C[C@H](ON=C(C)CCN2CCCCc3nc(C)c(C)cc32)[C@@H](CO)O1`
Solution: 0.635

Problem: Also, CCOC(=O)[C@H](Cc1ccccc1)NC(=O)CCC1CC(OC(=O)NCc2cccc3ccccc23)CC2(CCCC(COC(=O)NCCOc3ccccc3)O2)O1 (some centres undefined) please.
Solution: 0.725

Problem: And the next one, CCOC(=O)[C@H](Cc1ccccc1)NC(=O)CCC1CC(OC(=O)NCc2ccc3c(c2)OCO3)CC2(CCCC(COC(=O)NCCOC)O2)O1 (some centres undefined) ?
Solution: 0.69

Problem: Next up: COC(=O)[C@H](C)NC(=O)CCC1CC(OC(=O)NCc2ccc3c(c2)OCO3)CC2(CCCC(COC(=O)NCCc3ccc(Cl)cc3)O2)O1 (some centres undefined)
Solution: 0.275

Problem: // same read-out, input: CCOC(=O)[C@H](CC(C)C)NC(=O)CCC1CC(OC(=O)NCc2ccc3c(c2)OCO3)CC2(CCCC(COC(=O)NCCC(C)C)O2)O1 (some centres undefined)
Solution: -0.27

Problem: Try `CCCNC(=O)OC[C@H]1O[C@H](CCON=C2C[C@@H](O)[C@@H](O)[C@@H]3[C@@H]4C(=O)N(CC)C(=O)[C@@H]4CC[C@@H]23)C=C[C@@H]1Oc1ccc(OC)cc1` next.
Solution: 0.946

Problem: Thanks! And C=CCOCC1CN2[C@@H](CC[C@@H](C)[C@@H]2c2ccc(Br)cc2)C(=O)O1 (some centres undefined) ?
Solution: -0.5

Problem: What do we get for `CCCNC(=O)OC[C@H]1O[C@H](CCON=C2c3cc(OC)ccc3O[C@H](c3cccc(OC)c3)[C@H]2O)C=C[C@@H]1Oc1ccc(OC)cc1` ?
Solution: 0.618

Problem: Now consider `COC(=O)[C@@H]1CC[C@H](C)[C@@H](c2ccc(Br)cc2)N1` and answer again.
Solution: 0.102

Problem: Also, `CON=C(C)CCC(=O)OC[C@H]1O[C@H](C#Cc2ccccc2)C=C[C@@H]1Oc1ccc(C)cc1` please.
Solution: 0.354
